# assayed target: CDK1/cyclin B (Homo sapiens)
# Sequence (P06493 whole entry): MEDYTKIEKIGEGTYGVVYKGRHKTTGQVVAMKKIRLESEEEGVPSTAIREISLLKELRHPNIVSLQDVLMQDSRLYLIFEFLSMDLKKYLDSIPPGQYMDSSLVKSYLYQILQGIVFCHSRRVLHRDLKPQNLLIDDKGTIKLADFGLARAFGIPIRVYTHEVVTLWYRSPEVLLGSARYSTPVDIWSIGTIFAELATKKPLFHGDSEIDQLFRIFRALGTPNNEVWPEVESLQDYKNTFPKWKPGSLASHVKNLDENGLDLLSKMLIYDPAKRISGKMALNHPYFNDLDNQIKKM
# Sequence (P14635 whole entry partner): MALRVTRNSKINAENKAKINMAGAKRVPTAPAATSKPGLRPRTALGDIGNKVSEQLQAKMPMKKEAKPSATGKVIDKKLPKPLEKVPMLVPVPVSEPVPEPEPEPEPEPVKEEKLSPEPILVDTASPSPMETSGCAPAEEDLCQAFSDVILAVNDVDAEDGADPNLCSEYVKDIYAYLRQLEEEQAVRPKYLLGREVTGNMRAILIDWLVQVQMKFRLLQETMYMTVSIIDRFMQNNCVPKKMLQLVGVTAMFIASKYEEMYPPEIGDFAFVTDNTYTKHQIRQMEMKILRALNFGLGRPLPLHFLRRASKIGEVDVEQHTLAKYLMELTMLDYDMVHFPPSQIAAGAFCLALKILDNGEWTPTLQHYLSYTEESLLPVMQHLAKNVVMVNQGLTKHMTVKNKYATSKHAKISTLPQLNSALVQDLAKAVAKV
# assay protocol: Radioisotope-based protein kinase assay
# cond: 10 μM ATP, 3-fold dilution from 10 μM
readout label: log10(IC50) (log10 of the value in nM)
Heads up: the numbers are on a log10 scale; they represent IC50 in nM.

1) Nc1nccc(-c2c[nH]c3nccc(Oc4ccccc4)c23)n1 [I-1] :: 0.60
2) Nc1nccc(-c2c[nH]c3nccc(Oc4cccc(F)c4)c23)n1 [I-3] :: 0.90
3) CNC(=O)c1nn(C)c2c1C(C)(C)Cc1cnc(Nc3ccc(N4CCN(C)CC4)cc3)nc1-2 [Milciclib] :: 2.60
4) CC[C@H](Nc1nc(NCc2cnc(C)cc2C)c2ncn(C(C)C)c2n1)[C@@H](C)O [CYC065, reference compound] :: 2.76
5) Nc1nccc(-c2c[nH]c3nccc(Oc4cc(F)cc(F)c4)c23)n1 [I-4] :: 0.85

Inquiry: Which log10(IC50) value belongs to Nc1nccc(-c2c[nH]c3nccc(Oc4cccc(Cl)c4)c23)n1 [I-2] ?
Reply text: 1.20

====

# assay protocol: Snapshot plasma pharmacokinetics in mice
# Assay type: in vivo
# cond: mouse, in vivo, iv, 5 mg/kg
readout label: half-life (h)
Numbers only, in h.

Inquiry: Reported half-life, molecule `Nc1nccc(-c2c[nH]c3nccc(Oc4cccc(F)c4)c23)n1` : ____
Reply text: 1.15

====

# assay protocol: Snapshot plasma pharmacokinetics in mice
# Format: in vivo
# cond: mouse, in vivo, Cmax
readout label: Cmax (ng/mL)
Answers are plain numbers, in ng/mL.

# count of solved cases: 3
1) CN(C)C(=O)c1cc2cnc(Nc3ccc(N4CCNCC4)cn3)nc2n1C1CCCC1 [Ribociclib] :: 303
2) CCN1CCN(Cc2ccc(Nc3ncc(F)c(-c4cc(F)c5nc(C)n(C(C)C)c5c4)n3)nc2)CC1 [Abemaciclib] :: 107
3) Nc1nccc(-c2c[nH]c3nccc(Oc4cccc(F)c4)c23)n1 [I-3] :: 483

# ---- query compound ----
Inquiry: Look up Cmax: CNC(=O)c1nn(C)c2c1C(C)(C)Cc1cnc(Nc3ccc(N4CCN(C)CC4)cc3)nc1-2 [Milciclib]
Reply text: 537

====

# assayed target: CDK6/cyclin D1 (Homo sapiens)
# Sequence (Q00534 whole entry): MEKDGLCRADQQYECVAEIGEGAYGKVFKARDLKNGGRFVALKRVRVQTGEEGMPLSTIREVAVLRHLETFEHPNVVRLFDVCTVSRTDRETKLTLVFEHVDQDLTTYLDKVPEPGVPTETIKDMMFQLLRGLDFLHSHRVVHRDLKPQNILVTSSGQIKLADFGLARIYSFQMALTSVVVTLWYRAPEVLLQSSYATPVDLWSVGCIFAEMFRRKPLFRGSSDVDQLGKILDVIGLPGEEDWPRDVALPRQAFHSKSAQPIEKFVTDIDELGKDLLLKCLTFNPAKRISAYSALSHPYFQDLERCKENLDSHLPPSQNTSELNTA
# Sequence (P24385 whole entry partner): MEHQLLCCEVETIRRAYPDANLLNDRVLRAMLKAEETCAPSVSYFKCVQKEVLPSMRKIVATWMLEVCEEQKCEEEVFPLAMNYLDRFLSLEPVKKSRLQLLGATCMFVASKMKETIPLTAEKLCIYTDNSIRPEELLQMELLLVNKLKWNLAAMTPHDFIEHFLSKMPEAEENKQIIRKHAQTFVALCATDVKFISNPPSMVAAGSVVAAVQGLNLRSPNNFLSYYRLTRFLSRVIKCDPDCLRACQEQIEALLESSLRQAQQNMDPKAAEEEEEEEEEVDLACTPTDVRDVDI
# assay protocol: Radioisotope-based protein kinase assay
# cond: 10 μM ATP, 3-fold dilution from 10 μM
Provide the recorded IC50 for the entries that follow.
Give bare numbers, in nM.

Check out these entries, answers already filled in.
1) Nc1nccc(-c2c[nH]c3nccc(Oc4cccc(Cl)c4)c23)n1 :: 819
2) Nc1nccc(-c2c[nH]c3nccc(Oc4ccccc4)c23)n1 :: 138
3) Nc1nccc(-c2c[nH]c3nccc(Oc4ccc(F)cc4)c23)n1 :: 196

Now look at this one.
Inquiry: Could you tell me which IC50 is on file for `Nc1nccc(-c2c[nH]c3nccc(Oc4cccc(F)c4)c23)n1` ?
Reply text: 285

====

# assayed target: CDK9/cyclin T1 (Homo sapiens)
# Sequence (P50750 whole entry): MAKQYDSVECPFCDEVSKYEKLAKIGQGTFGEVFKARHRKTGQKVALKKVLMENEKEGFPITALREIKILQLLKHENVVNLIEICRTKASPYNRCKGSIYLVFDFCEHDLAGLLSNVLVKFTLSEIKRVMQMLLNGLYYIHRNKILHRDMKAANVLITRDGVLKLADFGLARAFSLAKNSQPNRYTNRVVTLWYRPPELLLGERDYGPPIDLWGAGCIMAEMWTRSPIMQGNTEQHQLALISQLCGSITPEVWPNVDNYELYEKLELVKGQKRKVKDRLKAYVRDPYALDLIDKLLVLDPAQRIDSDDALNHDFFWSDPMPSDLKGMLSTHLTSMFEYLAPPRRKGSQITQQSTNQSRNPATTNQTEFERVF
# Sequence (O60563 whole entry partner): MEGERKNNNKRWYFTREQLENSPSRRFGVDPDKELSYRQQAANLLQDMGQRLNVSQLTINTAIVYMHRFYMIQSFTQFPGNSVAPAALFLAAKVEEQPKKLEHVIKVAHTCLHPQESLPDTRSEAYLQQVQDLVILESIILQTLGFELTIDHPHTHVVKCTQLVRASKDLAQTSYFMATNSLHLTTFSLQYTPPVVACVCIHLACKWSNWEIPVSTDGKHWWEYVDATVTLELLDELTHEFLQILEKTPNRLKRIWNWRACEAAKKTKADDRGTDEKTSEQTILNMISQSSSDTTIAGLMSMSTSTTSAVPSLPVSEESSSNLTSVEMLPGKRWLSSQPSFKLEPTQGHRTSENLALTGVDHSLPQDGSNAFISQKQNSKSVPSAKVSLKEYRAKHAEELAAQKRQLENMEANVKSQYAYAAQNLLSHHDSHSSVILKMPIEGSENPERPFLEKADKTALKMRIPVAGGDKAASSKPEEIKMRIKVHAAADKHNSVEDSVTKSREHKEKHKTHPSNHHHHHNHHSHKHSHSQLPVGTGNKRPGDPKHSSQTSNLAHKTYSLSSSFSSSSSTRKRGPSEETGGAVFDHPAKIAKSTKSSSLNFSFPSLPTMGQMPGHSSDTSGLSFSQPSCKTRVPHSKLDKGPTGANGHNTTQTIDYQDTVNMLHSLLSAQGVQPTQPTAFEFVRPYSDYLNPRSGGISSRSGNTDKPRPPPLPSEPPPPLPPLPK
# assay protocol: NanoBRET target engagement intracellular kinase assay in HEK293 cells
# Format: cell-based
# cond: transfected HEK293 cells; 10-dose, 3-fold from 10 μM, duplicate
readout label: IC50 (nM)
Give bare numbers, in nM.

Inquiry: Requested field: IC50. Item: `Nc1nccc(-c2c[nH]c3nccc(Oc4cccc(F)c4)c23)n1`
Reply text: 702

====

# assay protocol: Snapshot plasma pharmacokinetics in mice
# Type: in vivo
# cond: mouse, in vivo, po, 5 mg/kg
readout label: Tmax (min)
Give bare numbers, in min.

Inquiry: Fill in the blank: the reported Tmax of Nc1nccc(-c2c[nH]c3nccc(Oc4cccc(F)c4)c23)n1 [I-3] is ____.
Reply text: 30

====

# assayed target: CDK7/cyclin H (Homo sapiens, UniProt P50613)
# Sequence (P50613 whole entry): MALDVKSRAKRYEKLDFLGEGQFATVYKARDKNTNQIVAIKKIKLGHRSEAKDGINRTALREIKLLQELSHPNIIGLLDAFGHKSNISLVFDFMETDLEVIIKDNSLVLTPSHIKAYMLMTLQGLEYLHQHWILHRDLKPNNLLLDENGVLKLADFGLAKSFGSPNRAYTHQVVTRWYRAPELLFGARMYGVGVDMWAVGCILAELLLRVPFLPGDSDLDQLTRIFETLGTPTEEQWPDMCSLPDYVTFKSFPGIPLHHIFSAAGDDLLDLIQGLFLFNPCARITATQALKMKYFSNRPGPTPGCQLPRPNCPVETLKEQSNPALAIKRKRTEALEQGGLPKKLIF
# Sequence (P51946 whole entry partner): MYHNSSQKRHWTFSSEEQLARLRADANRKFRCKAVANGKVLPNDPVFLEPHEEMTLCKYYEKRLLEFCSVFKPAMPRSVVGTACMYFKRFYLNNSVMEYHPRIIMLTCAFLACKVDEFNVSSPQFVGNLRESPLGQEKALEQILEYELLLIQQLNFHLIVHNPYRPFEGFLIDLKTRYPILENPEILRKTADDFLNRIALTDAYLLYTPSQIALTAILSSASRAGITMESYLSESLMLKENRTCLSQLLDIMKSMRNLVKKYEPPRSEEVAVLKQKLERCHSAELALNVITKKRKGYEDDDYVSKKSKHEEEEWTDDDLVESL
# Sequence (P51948 whole entry partner): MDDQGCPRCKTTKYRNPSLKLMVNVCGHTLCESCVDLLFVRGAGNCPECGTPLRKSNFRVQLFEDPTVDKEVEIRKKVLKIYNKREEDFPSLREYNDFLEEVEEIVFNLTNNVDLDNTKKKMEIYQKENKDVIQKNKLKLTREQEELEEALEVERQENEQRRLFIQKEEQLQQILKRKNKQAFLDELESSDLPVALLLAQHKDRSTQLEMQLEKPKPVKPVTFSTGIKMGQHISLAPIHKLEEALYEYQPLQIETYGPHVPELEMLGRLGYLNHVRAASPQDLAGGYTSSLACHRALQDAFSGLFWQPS
# assay protocol: NanoBRET target engagement intracellular kinase assay in HEK293 cells
# Type: cell-based
# cond: transfected HEK293 cells; 10-dose, 3-fold from 10 μM, duplicate
readout label: pIC50
Answers are plain numbers, as −log10 of the molar value.

Inquiry: Sample `Nc1nccc(-c2c[nH]c3nccc(Oc4cccc(F)c4)c23)n1` — what was its pIC50?
Reply text: 6.39

====

# assay protocol: Absolute bioavailability / PK after IV and PO dosing in CD-1 male mice
# Assay type: in vivo
# cond: male, CD-1, mouse, plasma, iv, 1 mg/kg, male CD1 mice, IV 1 mg/kg
# Method: Absolute bioavailability of I-3 was assessed after IV and PO dosing in CD-1 male mice. Mean plasma concentration (FIG. 6) and PK parameters (Table 12) are shown. […] Plasma concentrations were observed up to 8 hours, and plasma concentrations were not observed at 24 hour time point. […] This is approximately 50% of the hepatic blood flow ([…]) in mice.
readout label: AUC(0-t) (ng·h/mL)
Numbers only, in ng·h/mL.

Inquiry: For the compound shown here, Nc1nccc(-c2c[nH]c3nccc(Oc4cccc(F)c4)c23)n1 [I-3] , give the reported AUC(0-t).
Reply text: 384

====

# assay protocol: Snapshot plasma pharmacokinetics in mice
# Assay type: in vivo
# cond: mouse, in vivo, po, 5 mg/kg, AUCinf
readout label: AUC(0-inf) (ng·h/mL)
Answers are plain numbers, in ng·h/mL.

Inquiry: // lookup AUC(0-inf) for `Nc1nccc(-c2c[nH]c3nccc(Oc4cccc(F)c4)c23)n1`
Reply text: 1480

====

Provide the recorded pIC50 for the entries that follow.
# assayed target: CKD9/Cyclin H (Homo sapiens)
# Sequence (P50750 whole entry): as the sequence (P50750 whole entry) above
# assay protocol: Biochemical profile against CDKs and binding partners (Table 3)
One number for each entry, as −log10 of the molar value.

1) C[C@@]1(O)CCC[C@H]1n1c(=O)c(C(F)F)cc2cnc(NC3CCN(S(C)(=O)=O)CC3)nc21 [PF-06873600, reference compound] :: 7.37

# context switch: different molecule, same pIC50
Inquiry: What measured pIC50 goes with `Nc1nccc(-c2c[nH]c3nccc(Oc4cccc(F)c4)c23)n1` ?
Reply text: 8.15

====

# assay protocol: Absolute bioavailability / PK after IV and PO dosing in CD-1 male mice
# Format: in vivo
# cond: CD-1, mouse, plasma; male CD1 mice, PO 10 mg/kg
readout label: AUC(0-inf) (ng·h/mL)
Numbers only, in ng·h/mL.

Inquiry: State the recorded AUC(0-inf) for this entry: `Nc1nccc(-c2c[nH]c3nccc(Oc4cccc(F)c4)c23)n1`
Reply text: 6570

====

# assay protocol: Snapshot plasma pharmacokinetics in mice
# Assay type: in vivo
# cond: mouse, in vivo, po, 5 mg/kg
readout label: half-life
Give me the value, and tack the unit on after it.

Inquiry: Name the reported half-life value associated with the compound `Nc1nccc(-c2c[nH]c3nccc(Oc4cccc(F)c4)c23)n1`
Reply text: 3.1 h

====

# assayed target: CDK5/p35 (Homo sapiens)
# Sequence (Q00535 whole entry): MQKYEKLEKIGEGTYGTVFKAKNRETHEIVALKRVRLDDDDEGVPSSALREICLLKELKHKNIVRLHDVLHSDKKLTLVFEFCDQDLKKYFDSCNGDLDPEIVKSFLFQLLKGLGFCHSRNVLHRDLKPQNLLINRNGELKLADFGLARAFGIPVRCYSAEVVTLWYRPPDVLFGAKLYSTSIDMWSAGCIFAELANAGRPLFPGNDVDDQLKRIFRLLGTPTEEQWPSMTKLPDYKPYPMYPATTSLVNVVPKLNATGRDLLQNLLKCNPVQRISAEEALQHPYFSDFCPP
# Sequence (Q15078 whole entry partner): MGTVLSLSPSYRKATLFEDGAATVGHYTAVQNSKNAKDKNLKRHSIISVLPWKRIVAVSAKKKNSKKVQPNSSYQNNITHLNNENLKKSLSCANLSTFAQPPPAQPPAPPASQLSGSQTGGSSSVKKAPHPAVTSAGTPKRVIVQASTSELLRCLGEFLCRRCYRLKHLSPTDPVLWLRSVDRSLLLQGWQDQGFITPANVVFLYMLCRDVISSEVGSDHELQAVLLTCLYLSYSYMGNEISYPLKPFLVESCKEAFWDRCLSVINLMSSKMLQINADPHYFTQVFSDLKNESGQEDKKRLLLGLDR
# assay protocol: Radioisotope-based protein kinase assay
# cond: Table 2
readout label: IC50 (nM)
Answers are plain numbers, in nM.

Inquiry: Report IC50 for `Nc1nccc(-c2c[nH]c3nccc(Oc4cccc(F)c4)c23)n1` please.
Reply text: 8

====

# assay protocol: Absolute bioavailability / PK after IV and PO dosing in CD-1 male mice
# Format: in vivo
# cond: CD-1, mouse, plasma; male CD1 mice, PO 10 mg/kg
readout label: Cmax (ng/mL)
Give bare numbers, in ng/mL.

Inquiry: Consider the compound Nc1nccc(-c2c[nH]c3nccc(Oc4cccc(F)c4)c23)n1 [I-3] and give its measured Cmax.
Reply text: 2500

====

What IC50 was measured for each of the following?
# Test system: MCF-10A
# assay protocol: Cell viability in breast cell lines
# Format: cell-based
# cond: Homo sapiens; MCF-10A, 72 hours, Table 6; read-out: Cell viability by CellTiter Glo IC50
Give bare numbers, in µM.

1) CC[C@H](Nc1nc(NCc2cnc(C)cc2C)c2ncn(C(C)C)c2n1)[C@@H](C)O [CYC065, reference compound] :: 0.4

Now let's try a different one.
Inquiry: Tell me the measured IC50 of `Nc1nccc(-c2c[nH]c3nccc(Oc4cccc(F)c4)c23)n1` , please.
Reply text: 2.07

====

# assayed target: CDK1/cyclin A (Homo sapiens, UniProt P06493)
# Sequence (P06493 whole entry): as the sequence (P06493 whole entry) above
# Sequence (P20248 whole entry partner): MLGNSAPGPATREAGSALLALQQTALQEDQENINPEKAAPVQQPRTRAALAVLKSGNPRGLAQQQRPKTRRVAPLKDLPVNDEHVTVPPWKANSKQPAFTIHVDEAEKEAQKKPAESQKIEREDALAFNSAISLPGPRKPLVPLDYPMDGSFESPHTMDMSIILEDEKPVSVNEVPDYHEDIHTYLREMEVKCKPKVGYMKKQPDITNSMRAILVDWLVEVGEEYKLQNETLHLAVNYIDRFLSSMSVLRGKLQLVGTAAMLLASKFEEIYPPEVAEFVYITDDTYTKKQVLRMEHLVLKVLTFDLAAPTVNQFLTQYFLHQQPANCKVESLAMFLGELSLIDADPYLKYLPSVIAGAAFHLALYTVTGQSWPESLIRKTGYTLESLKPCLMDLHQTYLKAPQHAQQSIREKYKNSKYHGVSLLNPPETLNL
# assay protocol: Radioisotope-based protein kinase assay
# cond: 10 μM ATP, 3-fold dilution from 10 μM
# Experimental: A series of test compounds were selected for initial screening against CDK isoforms. Protein kinase assays were performed with gold standard radioisotope-based assay formats to measuring enzyme activity remaining in presence and absence of inhibitor.
Please provide measured pIC50 for the entries that follow.
Give bare numbers, as −log10 of the molar value.

Sample records with pIC50:
1. Nc1nccc(-c2c[nH]c3nccc(Oc4cccc(Cl)c4)c23)n1 :: 7.96
2. Nc1nccc(-c2c[nH]c3nccc(Oc4cccc(F)c4)c23)n1 :: 8.22
3. Nc1nccc(-c2c[nH]c3nccc(Oc4ccc(F)cc4)c23)n1 :: 8.40

Inquiry: Value lookup for pIC50; key = `Nc1nccc(-c2c[nH]c3nccc(Oc4ccccc4)c23)n1`
Reply text: 8.52

====

# assay protocol: Snapshot plasma pharmacokinetics in mice
# Assay type: in vivo
# cond: mouse, in vivo, iv, 5 mg/kg, Cmax
readout label: Cmax (ng/mL)
Answers are plain numbers, in ng/mL.

Inquiry: // Cmax lookup, key: Nc1nccc(-c2c[nH]c3nccc(Oc4cccc(F)c4)c23)n1 [I-3]
Reply text: 5080

Every entry's value here was drawn from patent US20240261297A1.
